Target: T1, Toscana virus nucleoprotein N (Toscana virus, UniProt P21701 1-253)
T1 sequence: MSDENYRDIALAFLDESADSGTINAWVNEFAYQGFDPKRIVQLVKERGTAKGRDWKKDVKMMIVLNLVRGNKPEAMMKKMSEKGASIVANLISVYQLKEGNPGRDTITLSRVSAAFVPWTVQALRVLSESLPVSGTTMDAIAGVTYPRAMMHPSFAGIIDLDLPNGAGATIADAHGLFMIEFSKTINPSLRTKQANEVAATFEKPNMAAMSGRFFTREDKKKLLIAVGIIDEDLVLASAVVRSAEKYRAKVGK
Test: ITC; n=0.51; ITC: 20 mM Tris pH 7.5, 150 mM NaCl, 8 C; 400 uM RNA titrated into 30 uM apo N
Details: protein: recombinant; tags: N-terminal His6; chain copies: 6; single strand
pKd: −log10 of the molar value.
Readout: pKd

[
  {
    "Binder": "UGUGUUUC (ssRNA) [oligo6 (8-mer from oligo1)]",
    "Quantitative result": 6.15
  }
]
